For each entry below, report its half-life value.
- MEASUREMENT PROTOCOL: Pharmacokinetic study in rats after oral administration of PM extract (HPLC-QQQ-MS of plasma)
- Assay type: in vivo, Sprague–Dawley (SD) rats
- CONDITION NOTES: male, Sprague-Dawley, rat, plasma, po, 18 g/kg, oral PM 18 g/kg, n = 6, read-out: T1/2z (converted)
Numbers only, in min.

Worked examples follow.
INSERT INTO measurements (compound, unit_info, recorded_value) VALUES
  ('O=C1c2cccc(O)c2C(=O)c2c(O)cc(CO)cc21', 'min', 385),
  ('Cc1cc(O)c2c(c1)C(=O)c1cc(O)cc(O)c1C2=O', 'min', 665),
  ('COc1cc(O)c2c(c1)C(=O)c1cc(C)cc(OC3OC(CO)C(O)C(O)C3O)c1C2=O [PG, physcion-8-O-β-D-glucoside]', 'min', 739);

Turning to the following compound.
Exam item: Write down half-life measured for item OCC1OC(Oc2c(O)cc(O)cc2C=Cc2ccc(O)cc2)C(O)C(O)C1O (stereo not shown)
Marked response: 133
